Entry source: the RNAGym collection of RNA variant scans (doi:10.1038/s41586-018-0170-7)

A collection of variants and their measured yeast fitness (ln)
B1: tRNA (parent)
chain: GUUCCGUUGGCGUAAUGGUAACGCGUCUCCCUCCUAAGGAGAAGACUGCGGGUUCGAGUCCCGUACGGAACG

Variants of: B1
protocol: yeast fitness, log relative to wild type (ln ratio); higher = fitter; tRNA-Arg(CCU), competitive growth, 37 C, 1 M NaCl
Just the number, please, no unit attached.

The examples below pair each entry with its known result.
GUUCCAUUGGCGUAAUGGUAACGCGUUUCCCUCCUAAGGAGAAGACUGCGGGUUCGAGUCCCGUACGGAAUG :: -0.204
GGUCCGUUGGCGUAAUGGUAACGCGUCUCCCUCCUAAGGAGACGAUUGCGGGUUCGAGUCCCGUAAGGGUUG :: -0.443

Now look at this one.
Measured yeast fitness (ln), AGUCCGUUGGCGUAAUGGUAACGCGUCUCCCUCCUAAGGAGACGAUUGCGGGUUCGAGUCCCGUAAGGAUCG : -0.125
